Experiment description: chemical genetic growth profiling, strain panel (AID 1159580);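 note: tested at 20 µM; growth read once vehicle control cultures reached saturation at 30 °C; 1 = growth at the plate median or of vehicle wells; lower values mean less growth of the strain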
Study conditions: S. cerevisiae deletion strains, growth OD, locus YHR030C, strain SLT2, active compounds read low
About 2,000 (36%) of roughly 5,500 compounds were called active. Roughly 18% stayed inconclusive and do not appear here. This is one part of the list.
Metric: normalized growth

Example cases with answers are listed next.
{"Compound": "OC(COCc1ccccc1)Cn1c2ccccc2c2ccccc21 (stereo not drawn)", "Metric": "normalized growth", "Reported measurement": "0.632 (active)"}
{"Compound": "COc1ccc(Br)c(C(=O)/C(C#N)=C/c2cccs2)c1", "Metric": "normalized growth", "Reported measurement": "0.125 (active)"}
{"Compound": "CCC(=O)NCC[C@@H]1CCc2ccc3c(c21)CCO3", "Metric": "normalized growth", "Reported measurement": "0.947 (inactive)"}
{"Compound": "O=C[C@H](O)[C@@H](O)[C@H](O)CO", "Metric": "normalized growth", "Reported measurement": "1.04 (inactive)"}
{"Compound": "CCN(CC)[N+]([O-])=NO", "Metric": "normalized growth", "Reported measurement": "0.974 (inactive)"}
{"Compound": "Cn1c2c(c3ccccc31)/C(=N\\OC(=O)c1ccc(Cl)cc1Cl)CCC2", "Metric": "normalized growth", "Reported measurement": "1.07 (inactive)"}

Report normalized growth for O=C(Oc1cccc2cccnc12)c1ccccc1 please. 0.955 (inactive)

Note, next up: O=C1OC(c2ccccc2)=C/C1=C/c1ccccc1 0.506 (active)
